The reported measurements were obtained from patent US10912814B2.

Experiment: Voxilaprevir Form VI single and multiple oral dose pharmacokinetics in healthy subjects
Type: in vivo, human
Settings: human, plasma, oral, 30 mg, single dose 30 mg; mean
metric: Cmax

Query Cmax for CC[C@@H]1[C@@H]2CN(C(=O)[C@H](C(C)(C)C)NC(=O)O[C@@H]3C[C@H]3CCCCC(F)(F)c3nc4ccc(OC)cc4nc3O2)[C@@H]1C(=O)N[C@]1(C(=O)NS(=O)(=O)C2(C)CC2)C[C@H]1C(F)F [voxilaprevir, Form VI]
3.7 ng/mL

---

Assay: Voxilaprevir Form VI single and multiple oral dose pharmacokinetics in healthy subjects
Format: in vivo, human
Conditions: human, plasma, oral, 300 mg, single dose 300 mg; mean
metric: Cmax (ng/mL)
Answer in ng/mL, number only, no unit symbol.

State its Cmax: CC[C@@H]1[C@@H]2CN(C(=O)[C@H](C(C)(C)C)NC(=O)O[C@@H]3C[C@H]3CCCCC(F)(F)c3nc4ccc(OC)cc4nc3O2)[C@@H]1C(=O)N[C@]1(C(=O)NS(=O)(=O)C2(C)CC2)C[C@H]1C(F)F [voxilaprevir, Form VI]
34.5

---

Assay: Voxilaprevir Form VI single and multiple oral dose pharmacokinetics in healthy subjects
Assay type: in vivo, human
Conditions: human, plasma, oral; single dose 30 mg; mean
Protocol: Pub. No. 2015/0175625 A1. Initial studies were conducted using the crystalline Form VI of voxilaprevir. As described previously, Form VI of voxilaprevir is characterized by an X-ray powder diffractogram comprising the following peaks (±0.2°): at 14.6, 15.4, and 20.0°2θ, as determined on a diffractometer using Cu-Kα radiation. Following single and multiple oral doses of voxilaprevir, Form VI, maximum plasma concentrations occurred between 2.0 and 5.0 hours (median tmax). […]
metric: AUC(0-t) (ng·h/mL)
Give your result in ng·h/mL as a bare value.

Find the measured AUC(0-t) of CC[C@@H]1[C@@H]2CN(C(=O)[C@H](C(C)(C)C)NC(=O)O[C@@H]3C[C@H]3CCCCC(F)(F)c3nc4ccc(OC)cc4nc3O2)[C@@H]1C(=O)N[C@]1(C(=O)NS(=O)(=O)C2(C)CC2)C[C@H]1C(F)F [voxilaprevir, Form VI] and report it.
33

---

Experiment: Voxilaprevir Form VI single and multiple oral dose pharmacokinetics in healthy subjects
Type: in vivo, human
Conditions: human, plasma, oral, 30 mg, multiple dose 30 mg; mean
metric: Cmax (ng/mL)
Write it as a number; the unit ng/mL goes unstated.

Determine its reported Cmax: CC[C@@H]1[C@@H]2CN(C(=O)[C@H](C(C)(C)C)NC(=O)O[C@@H]3C[C@H]3CCCCC(F)(F)c3nc4ccc(OC)cc4nc3O2)[C@@H]1C(=O)N[C@]1(C(=O)NS(=O)(=O)C2(C)CC2)C[C@H]1C(F)F [voxilaprevir, Form VI]
7.3

---

Experiment: Voxilaprevir Form VI single and multiple oral dose pharmacokinetics in healthy subjects
Assay type: in vivo, human
Conditions: human, plasma, oral; single dose 100 mg; mean
metric: AUC(0-inf) (ng·h/mL)
Write the answer as a number in ng·h/mL, unit excluded.

Please supply the value of reported AUC(0-inf) for the item CC[C@@H]1[C@@H]2CN(C(=O)[C@H](C(C)(C)C)NC(=O)O[C@@H]3C[C@H]3CCCCC(F)(F)c3nc4ccc(OC)cc4nc3O2)[C@@H]1C(=O)N[C@]1(C(=O)NS(=O)(=O)C2(C)CC2)C[C@H]1C(F)F [voxilaprevir, Form VI]
245
